Record form. Attribute: pIC50. Fill in for each entry.
# testedOn: human CTPS1 (Homo sapiens, UniProt P17812)
# Construct: FLAG (with GG linker); His8 (with GG linker); purchased Proteros biostructures GmbH
# Sequence (P17812 whole entry): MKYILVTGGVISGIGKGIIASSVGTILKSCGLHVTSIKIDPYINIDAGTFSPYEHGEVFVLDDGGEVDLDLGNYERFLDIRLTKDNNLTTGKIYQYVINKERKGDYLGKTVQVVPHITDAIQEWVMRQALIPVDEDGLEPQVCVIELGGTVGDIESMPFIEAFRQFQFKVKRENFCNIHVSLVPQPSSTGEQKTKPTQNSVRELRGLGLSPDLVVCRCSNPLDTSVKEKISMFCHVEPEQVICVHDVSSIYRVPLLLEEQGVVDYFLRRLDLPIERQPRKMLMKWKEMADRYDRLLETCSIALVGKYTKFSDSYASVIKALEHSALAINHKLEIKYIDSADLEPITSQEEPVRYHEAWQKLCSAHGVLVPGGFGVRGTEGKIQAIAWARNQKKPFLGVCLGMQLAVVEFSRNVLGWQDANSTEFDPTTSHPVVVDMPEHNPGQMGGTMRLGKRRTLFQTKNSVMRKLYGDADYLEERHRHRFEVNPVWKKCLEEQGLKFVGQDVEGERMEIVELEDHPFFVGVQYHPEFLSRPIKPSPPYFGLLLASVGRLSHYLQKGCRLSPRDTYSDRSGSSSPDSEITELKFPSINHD
# assayComment: Human CTPS1 enzyme inhibition, ADP-Glo Max assay
# Assay type: biochemical
# conditionContext: ADP-Glo Max assay; Table 10; read-out: Human CTPS1 Enzyme Inhibition, IC50 grouped by potency range (CTPS1)
pIC50: −log10 of the molar value.

Here is how some molecules turned out for pIC50.
1. CC(C)(C(=O)Nc1ccc(-c2cncc(Cl)c2)cn1)c1csc(NS(=O)(=O)C2CC2)n1 [T225]
> 7.00
2. CCOc1cncc(-c2ccc(NC(=O)C(CC)(CC)c3csc(NS(=O)(=O)C4CC4)n3)nc2)c1 [T145]
> 7.00
3. CN(C)c1cncc(-c2ccc(NC(=O)C(C)(C)c3csc(NS(=O)(=O)C4CC4)n3)cc2)c1 [T257]
6.00 to 7.00
4. Cc1cc(-c2cncc(C#N)c2)cc(C)c1NC(=O)C(C)(C)c1csc(NS(=O)(=O)C2CC2)n1 [T320]
6.00 to 7.00
5. Cc1cc(-c2cncc(Cl)c2)cc(C)c1NC(=O)C(C)(C)c1csc(NS(=O)(=O)C2CC2)n1 [T321]
> 7.00

Next item in the queue.
Prompt line: State, in one line, measured pIC50 of CC(C)(C(=O)Nc1ccc(-c2cccnc2)c(C#N)c1)c1csc(NS(=O)(=O)C2CC2)n1 [T152]
Response line: 6.00 to 7.00
